All figures here come from patent US20240207263A1.

Molecular target: ATM (Homo sapiens (Human), UniProt Q13315)
Sequence (Q13315 whole entry, looked up): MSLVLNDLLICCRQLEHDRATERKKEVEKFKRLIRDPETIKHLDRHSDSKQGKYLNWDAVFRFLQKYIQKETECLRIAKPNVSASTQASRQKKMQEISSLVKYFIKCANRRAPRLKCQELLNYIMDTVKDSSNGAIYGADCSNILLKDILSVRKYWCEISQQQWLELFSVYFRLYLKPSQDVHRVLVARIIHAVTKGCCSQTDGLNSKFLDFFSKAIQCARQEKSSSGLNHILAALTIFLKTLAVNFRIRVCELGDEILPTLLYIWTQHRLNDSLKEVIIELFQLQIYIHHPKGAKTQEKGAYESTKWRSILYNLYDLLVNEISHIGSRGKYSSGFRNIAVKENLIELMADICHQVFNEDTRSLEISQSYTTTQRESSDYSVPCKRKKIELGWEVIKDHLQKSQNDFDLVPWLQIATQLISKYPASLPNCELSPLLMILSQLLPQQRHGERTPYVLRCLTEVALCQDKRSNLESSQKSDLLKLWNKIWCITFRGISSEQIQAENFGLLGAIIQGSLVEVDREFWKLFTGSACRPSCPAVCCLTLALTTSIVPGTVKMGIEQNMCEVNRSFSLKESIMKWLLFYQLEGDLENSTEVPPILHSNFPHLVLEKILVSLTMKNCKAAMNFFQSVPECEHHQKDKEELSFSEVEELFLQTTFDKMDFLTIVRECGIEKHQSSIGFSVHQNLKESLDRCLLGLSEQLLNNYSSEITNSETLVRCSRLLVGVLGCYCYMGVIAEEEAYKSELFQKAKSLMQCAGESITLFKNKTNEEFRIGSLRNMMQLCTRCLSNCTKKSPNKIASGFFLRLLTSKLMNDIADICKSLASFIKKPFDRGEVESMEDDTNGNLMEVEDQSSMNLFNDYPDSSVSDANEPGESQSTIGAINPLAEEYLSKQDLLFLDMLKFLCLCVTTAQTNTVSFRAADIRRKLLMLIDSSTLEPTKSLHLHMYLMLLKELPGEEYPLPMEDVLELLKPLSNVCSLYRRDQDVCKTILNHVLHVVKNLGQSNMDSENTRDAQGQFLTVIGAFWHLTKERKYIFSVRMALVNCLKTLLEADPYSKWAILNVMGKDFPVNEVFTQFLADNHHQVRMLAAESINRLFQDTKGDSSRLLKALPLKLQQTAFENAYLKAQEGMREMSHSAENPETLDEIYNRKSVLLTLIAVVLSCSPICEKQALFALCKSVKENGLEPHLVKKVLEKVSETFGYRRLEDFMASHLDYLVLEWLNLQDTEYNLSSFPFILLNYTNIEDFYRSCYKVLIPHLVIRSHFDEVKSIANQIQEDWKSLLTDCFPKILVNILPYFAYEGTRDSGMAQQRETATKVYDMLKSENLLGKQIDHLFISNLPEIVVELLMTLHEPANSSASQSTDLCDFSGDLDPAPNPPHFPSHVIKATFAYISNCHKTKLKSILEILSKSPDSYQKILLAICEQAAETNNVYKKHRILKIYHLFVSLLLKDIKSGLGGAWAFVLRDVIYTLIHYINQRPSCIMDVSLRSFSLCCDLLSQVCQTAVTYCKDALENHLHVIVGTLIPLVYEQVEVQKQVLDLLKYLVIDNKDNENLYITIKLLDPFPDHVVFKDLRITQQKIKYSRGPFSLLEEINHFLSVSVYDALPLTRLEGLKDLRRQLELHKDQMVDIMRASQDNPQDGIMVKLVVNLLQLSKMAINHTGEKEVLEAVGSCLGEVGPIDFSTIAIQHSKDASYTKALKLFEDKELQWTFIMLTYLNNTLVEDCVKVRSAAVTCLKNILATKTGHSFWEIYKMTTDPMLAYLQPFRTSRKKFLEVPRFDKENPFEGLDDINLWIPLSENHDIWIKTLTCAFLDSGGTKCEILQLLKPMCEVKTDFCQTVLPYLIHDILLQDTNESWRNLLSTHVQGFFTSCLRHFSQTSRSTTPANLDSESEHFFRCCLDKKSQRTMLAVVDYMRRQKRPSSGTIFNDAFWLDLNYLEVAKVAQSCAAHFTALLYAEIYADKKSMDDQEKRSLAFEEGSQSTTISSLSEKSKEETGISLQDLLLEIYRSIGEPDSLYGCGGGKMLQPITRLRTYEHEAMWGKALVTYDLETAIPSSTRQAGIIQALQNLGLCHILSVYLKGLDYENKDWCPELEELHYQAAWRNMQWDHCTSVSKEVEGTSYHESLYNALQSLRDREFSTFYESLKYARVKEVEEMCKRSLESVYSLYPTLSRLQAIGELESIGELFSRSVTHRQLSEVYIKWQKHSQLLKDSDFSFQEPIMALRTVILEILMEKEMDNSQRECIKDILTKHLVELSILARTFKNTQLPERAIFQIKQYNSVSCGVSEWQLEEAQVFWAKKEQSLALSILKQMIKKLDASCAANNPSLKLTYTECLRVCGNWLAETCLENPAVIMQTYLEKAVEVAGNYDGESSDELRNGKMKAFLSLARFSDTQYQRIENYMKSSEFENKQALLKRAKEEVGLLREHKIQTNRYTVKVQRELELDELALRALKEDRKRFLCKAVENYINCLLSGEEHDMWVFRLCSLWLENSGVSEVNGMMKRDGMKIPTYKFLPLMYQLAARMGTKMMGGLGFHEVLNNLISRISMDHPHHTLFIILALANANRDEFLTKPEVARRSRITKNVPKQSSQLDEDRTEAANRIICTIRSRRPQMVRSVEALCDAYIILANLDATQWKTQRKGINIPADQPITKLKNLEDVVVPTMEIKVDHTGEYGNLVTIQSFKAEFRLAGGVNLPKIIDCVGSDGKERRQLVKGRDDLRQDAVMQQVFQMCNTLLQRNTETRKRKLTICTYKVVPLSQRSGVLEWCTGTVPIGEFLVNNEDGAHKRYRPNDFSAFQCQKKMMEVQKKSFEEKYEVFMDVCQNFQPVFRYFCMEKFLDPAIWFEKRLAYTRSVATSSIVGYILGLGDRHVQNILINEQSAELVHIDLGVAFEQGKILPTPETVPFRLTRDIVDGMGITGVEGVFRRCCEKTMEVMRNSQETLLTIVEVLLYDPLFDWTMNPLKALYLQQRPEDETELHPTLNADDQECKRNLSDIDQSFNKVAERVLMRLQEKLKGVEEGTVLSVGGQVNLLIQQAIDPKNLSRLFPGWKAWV
Assay: biochemical
Type: biochemical
Conditions: read-out: ATM IC50
measured.parameter: IC50 (nM)
The answer is to be given in nM; state only the numeric part.

Ask | Any idea what IC50 was measured for CC(C)n1c(=O)n(C)c2nnc3ccc(-c4ccc([C@@H](C)OCC(=O)O)nc4)cc3c21 ?
Reply | 339

Ask | Fill in the blank: the reported IC50 of COC[C@@H]1CCN(CCO[C@H](C)c2ccc(-c3ccc4nnc5c(c4c3)n(C(C)C)c(=O)n5C)cn2)C1 is ____.
Reply | 3.4

Ask | Look up IC50 for this compound: CC(C)n1c(=O)n(C)c2nnc3ccc(-c4ccc([C@@H](C)OCCN5CCCCC5)nc4)cc3c21
Reply | 8.2

Ask | Dear colleague, I am looking for the recorded IC50 of the following compound: CC(C)n1c(=O)n(C)c2nnc3ccc(-c4ccc([C@@H](C)OCCN5CCCC5)nc4)cc3c21
Reply | 7.8

Ask | I have this compound here, CO[C@H]1C[C@H](n2c(=O)n(C)c3nnc4ccc(-c5ccc([C@@H](C)OCCN6CCC7(CC6)CC7)nc5)cc4c32)C1 , and I need its recorded IC50.
Reply | 2.2

Ask | Report IC50 for CO[C@@H]1CCN(CCO[C@H](C)c2ccc(-c3ccc4nnc5c(c4c3)n(C3CCOCC3)c(=O)n5C)cn2)C1 please.
Reply | 7.8

Ask | Reported IC50 for CC(C)n1c(=O)n(C)c2nnc3cc(F)c(-c4ccc([C@@H](C)OCCN5CCC(OC(F)(F)F)C5)nc4)cc3c21 (some centres unmarked) : what is it?
Reply | 6.3

Ask | Return reported IC50; argument: CC(C)n1c(=O)n(C)c2nnc3ccc(-c4ccc(COCC5CCCN5C)nc4)cc3c21 (centres unmarked)
Reply | 105

Ask | Could you share which IC50 value was measured for CO[C@H]1CCN(CCO[C@@H](C)c2ccc(-c3ccc4nnc5c(c4c3)n(C(C)C)c(=O)n5C)cn2)C1 ?
Reply | 167

Ask | I am curious: what IC50 value has been reported for CO[C@H]1C[C@@H](n2c(=O)n(C)c3nnc4ccc(-c5ccc(COCCN6CCCCC6)nc5)cc4c32)C1 ?
Reply | 32

Ask | Look up IC50 for this compound: CC(C)n1c(=O)n(C)c2nnc3ccc(-c4ccc(COCC5(N6CC7CC7C6)CC5)nc4)cc3c21 (centres unmarked)
Reply | 377

Ask | Report IC50 for C[C@@H](OCCN1CCC(OC(F)(F)F)CC1)c1ccc(-c2ccc3nnc4c(c3c2)n(C2CCOCC2)c(=O)n4C)cn1 please.
Reply | 2.1

Ask | Quick one: IC50 for CC(C)n1c(=O)n(C)c2nnc3ccc(-c4ccc(COCCN5CC[C@@H](OC(F)F)C5)nc4)cc3c21 ?
Reply | 11

Ask | Recorded IC50 for CC(C)n1c(=O)n(C)c2nnc3ccc(-c4ccc([C@@H](OCCN5CCCC5)C(F)(F)F)nc4)cc3c21 , please?
Reply | 292
